Provide the reported viability, T/C of each item.
Tested on: 966289-007-R4-J1-PDC complex spheroid viability
assay_text: Anticancer human tumor 966289-007-R4-J1-PDC patient-derived pancreatic adenocarcinoma cell line growth inhibition [RAS]
condition_details: second compound 0.316 µM; first compound 0.1 µM; stronger effect = lower value
Give just the numeric value; % need not be written.

Name the recorded viability, T/C of C=CC(=O)Nc1cc(Nc2nccc(-c3cn(C)c4ccccc34)n2)c(OC)cc1N(C)CCN(C)C + C=CC(=O)N1CCN(c2nc(OCC3CCCN3C)nc3c(F)c(-c4nc(N)cc(C)c4C(F)(F)F)c(Cl)cc23)C(C)C1 , assay system 966289-007-R4-J1-PDC complex spheroid viability.
98.5

Name the recorded viability, T/C of CCN1CCN(Cc2ccc(Nc3ncc(F)c(-c4cc(F)c5nc(C)n(C(C)C)c5c4)n3)nc2)CC1 + C=CC(=O)N1CCN(c2nc(OCC3CCCN3C)nc3c(F)c(-c4nc(N)cc(C)c4C(F)(F)F)c(Cl)cc23)C(C)C1 , assay system 966289-007-R4-J1-PDC complex spheroid viability.
105

Name the recorded viability, T/C of CC(C)n1nc(-c2ccc3oc(N)nc3c2)c2c(N)ncnc21 + C#Cc1c(F)ccc2cc(O)cc(-c3ncc4c(N5CC6CCC(C5)N6)nc(OCC56CCCN5CC(F)C6)nc4c3F)c12 , assay system 966289-007-R4-J1-PDC complex spheroid viability.
21

###

Provide the reported viability, T/C of each item.
Tested on: 966289-007-R4-J1-PDC complex spheroid viability
assay_text: Anticancer human tumor 966289-007-R4-J1-PDC cell line growth inhibition [RAS];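 also: spheroids exposed to agents for one week before readout; percent viability relative to DMSO vehicle control wells as 100%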
condition_details: second compound 0.000949 µM; first compound 0.01 µM; stronger effect = lower value
Give just the numeric value; % need not be written.

Given the compound CCN1CCN(Cc2ccc(Nc3ncc(F)c(-c4cc(F)c5nc(C)n(C(C)C)c5c4)n3)nc2)CC1 + CCn1c(-c2cc(N3CCN(C)CC3)cnc2C(C)OC)c2c3cc(ccc31)-c1csc(n1)CC(NC(=O)C1CC1C)C(=O)N1CCCC(N1)C(=O)OCC(C)(C)C2 , write its reported viability, T/C.
116

Given the compound C=CC(=O)N1CCN(c2nc(OCC3CCCN3C)nc3c(F)c(-c4nc(N)cc(C)c4C(F)(F)F)c(Cl)cc23)C(C)C1 (centres undefined) + CCn1c(-c2cc(N3CCN(C)CC3)cnc2C(C)OC)c2c3cc(ccc31)-c1csc(n1)CC(NC(=O)C1CC1C)C(=O)N1CCCC(N1)C(=O)OCC(C)(C)C2 , write its reported viability, T/C.
119

Given the compound C=CC(=O)Nc1cc(Nc2nccc(-c3cn(C)c4ccccc34)n2)c(OC)cc1N(C)CCN(C)C + CCn1c(-c2cc(N3CCN(C)CC3)cnc2C(C)OC)c2c3cc(ccc31)-c1csc(n1)CC(NC(=O)C1CC1C)C(=O)N1CCCC(N1)C(=O)OCC(C)(C)C2 , write its reported viability, T/C.
88.8

Given the compound CCN1CCN(Cc2ccc(Nc3ncc(F)c(-c4cc(F)c5nc(C)n(C(C)C)c5c4)n3)nc2)CC1 + CCn1c(-c2cccnc2C(C)OC)c2c3cc(ccc31)N1CCOC(CC(NC(=O)C(C(C)C)N(C)C(=O)C3(F)CCN(C(=O)C#CC(C)(C)N(C)C)CC3)C(=O)N3CCCC(N3)C(=O)OCC(C)(C)C2)C1 , write its reported viability, T/C.
84.9

Taken from PubChem BioAssay AID2060897.
